Just for reference, ChEMBL document CHEMBL1221253 is where these values come from.

study system: Beta-secretase 1 (Homo sapiens, UniProt P56817)
Sequence (P56817 whole entry): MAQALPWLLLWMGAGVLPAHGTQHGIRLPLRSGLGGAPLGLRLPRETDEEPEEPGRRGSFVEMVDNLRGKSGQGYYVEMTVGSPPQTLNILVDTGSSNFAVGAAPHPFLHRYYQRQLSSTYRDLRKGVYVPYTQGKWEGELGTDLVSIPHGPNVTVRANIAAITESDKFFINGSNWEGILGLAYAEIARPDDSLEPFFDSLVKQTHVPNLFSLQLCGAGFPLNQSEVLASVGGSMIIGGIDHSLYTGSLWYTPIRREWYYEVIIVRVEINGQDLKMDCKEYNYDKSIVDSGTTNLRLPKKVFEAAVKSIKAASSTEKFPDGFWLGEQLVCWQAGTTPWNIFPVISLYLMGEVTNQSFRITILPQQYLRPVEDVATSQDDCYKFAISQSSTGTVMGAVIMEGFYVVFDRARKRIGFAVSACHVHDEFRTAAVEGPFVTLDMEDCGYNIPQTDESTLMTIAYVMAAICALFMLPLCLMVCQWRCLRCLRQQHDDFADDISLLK
assay text: Binding affinity to BACE1 at 2 mM by surface plasmon resonance assay
Values of inhibition greater than or equal to 30% map to Met; values below map to Not met.

| structure notation | cat |
| --- | --- |
| Clc1cccc(-c2cnc3ncccn23)c1 | Not met |
| Nc1nc2ccc(Cl)cc2[nH]1 | Met |
| Nc1nc2cc(Cl)ccc2n1CCCO | Met |
| COn1c(-c2ccccc2)nc2ncccc21 | Met |
| O=C1c2ccccc2C(=O)C1(O)O | Not met |
| c1cnc2ncc(-c3ccncc3)n2c1 | Not met |
